Value source: the RNAGym collection of RNA variant scans (doi:10.1073/pnas.2313332121)

The variants listed here are annotated with their polymerase ribozyme fitness (log ratio).
B1: TPR t1 (parent)
chain: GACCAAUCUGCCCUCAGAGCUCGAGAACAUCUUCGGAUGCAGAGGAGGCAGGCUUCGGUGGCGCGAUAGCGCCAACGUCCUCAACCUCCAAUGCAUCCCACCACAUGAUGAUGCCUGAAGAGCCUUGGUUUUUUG

Variants of: B1
Assay: polymerase ribozyme fitness, log enrichment relative to wild type (log ratio); higher = more active; in vitro selection for triplet polymerase activity

| sequenceVariant | polymerase ribozyme fitness (log ratio) |
| --- | --- |
| G19C C86G A121G | -0.947 |
| G17C A26G A37U C53G G57A A91G G93U A111U U129G | -6.27 |
| C11U C34G C89U A105C U106A | -4.08 |
| A29G G69U | -0.507 |
| C86G U126C | -1.74 |
| C40U A41U G60A | -2.3 |
| C12U G17C C49U C82G C94U C99G C123A | -7.59 |
| G44C G77U C86A | -4.13 |
| C13U C64U A74U C82G | -1.47 |
| A5C U55G | -0.672 |
| C49A C73U G120U | -0.216 |
| C28U G63C U78C U92G C99G A103U G110A | -4.52 |
| C62A U131A | -0.5 |
| C20A C53U | -2.46 |
